test system: corn earworm (CEW; Helicoverpa zea: Lepidoptera); test: Insecticidal test for corn earworm, 128-well diet tray assay; type: in vivo
observable: % Mortality CEW 50 μg/cm^2

Some entries whose results are on file:
>>> measured_result("CCOC(=O)CC(C)OC(=O)Nc1ccc(-c2ncn(-c3ccc(OC(F)(F)F)cc3)n2)cc1 (stereo not drawn)")
"A (50-100)"
>>> measured_result("CC(OC(=O)Nc1ccc(-c2ncn(-c3ccc(OC(F)(F)F)cc3)n2)cc1)c1cccc(Cl)n1 (stereo not drawn)")
"A (50-100)"
>>> measured_result("CC#CC(OC(=O)Nc1ccc(-c2ncn(-c3ccc(OC(F)(F)F)cc3)n2)cc1)c1ccccc1 (stereo not drawn)")
"A (50-100)"
>>> measured_result("CCC(OC(=O)Nc1ccc(-c2ncn(-c3ccc(C(F)(F)F)cc3)n2)cc1)c1ccccc1 (stereo not drawn)")
"A (50-100)"
>>> measured_result("Cc1cc(C)c(CCOC(=O)Nc2ccc(-c3ncn(-c4ccc(OC(F)(F)F)cc4)n3)cc2)c(C)c1")
"A (50-100)"

Incoming: % Mortality CEW 50 μg/cm^2 lookup needed for CCCCCCC(C)OC(=O)Nc1ccc(-c2ncn(-c3ccc(OC(F)(F)F)cc3)n2)cc1 (stereo not drawn) , thanks.
Outgoing: B (Less than 50)

Incoming: % Mortality CEW 50 μg/cm^2 lookup needed for COc1ccc(CC(C)OC(=O)Nc2ccc(-c3ncn(-c4ccc(OC(F)(F)F)cc4)n3)cc2)cc1 (stereo not drawn) , thanks.
Outgoing: A (50-100)

Incoming: % Mortality CEW 50 μg/cm^2 lookup needed for "CCOc1cnc(C(C)(C)OC(=O)Nc2ccc(-c3ncn(-c4ccc(OC(F)(F)F)cc4)n3)cc2)nc1" , thanks.
Outgoing: B (Less than 50)

Incoming: % Mortality CEW 50 μg/cm^2 lookup needed for CC(OC(=O)Nc1ccc(-c2ncn(-c3ccc(OC(F)(F)F)cc3)n2)cc1)c1ccccc1 (stereo not drawn) , thanks.
Outgoing: A (50-100)

Incoming: % Mortality CEW 50 μg/cm^2 lookup needed for O=C(Nc1ccc(-c2ncn(-c3ccc(OC(F)(F)F)cc3)n2)cc1)OC1CCc2ccccc2O1 (stereo not drawn) , thanks.
Outgoing: A (50-100)

###

test system: corn earworm (CEW; Helicoverpa zea: Lepidoptera); test: Insecticidal test for corn earworm, 128-well diet tray assay; assay type: in vivo
observable: % Mortality CEW 50 μg/cm^2

Some entries whose results are on file:
>>> measured_result("COCC(C)(C)OC(=O)Nc1ccc(-c2ncn(-c3ccc(OC(F)(F)F)cc3)n2)cc1")
"A (50-100)"
>>> measured_result("CO[C@@H]1O[C@@H](C)[C@H](OC)[C@@H](OC(=O)Nc2ccc(-c3ncn(-c4ccc(OC(F)(F)F)cc4)n3)cc2)[C@H]1OC")
"B (Less than 50)"
>>> measured_result("O=C(Nc1ccc(-c2ncn(-c3ccc(OC(F)(F)F)cc3)n2)cc1)OCc1ccccc1")
"A (50-100)"
>>> measured_result("Cc1ccc(OC(=O)Nc2ccc(-c3ncn(-c4ccc(OC(F)(F)F)cc4)n3)cc2)cn1")
"B (Less than 50)"
>>> measured_result("CC(C)(OC(=O)Nc1ccc(-c2ncn(-c3ccc(OC(F)(F)F)cc3)n2)cc1)c1ccccc1")
"A (50-100)"

Incoming: % Mortality CEW 50 μg/cm^2 lookup needed for C#CC(OC(=O)Nc1ccc(-c2ncn(-c3ccc(C(F)(F)F)cc3)n2)cc1)c1ccc(C(F)(F)F)cc1 (stereo not shown) , thanks.
Outgoing: A (50-100)

Incoming: % Mortality CEW 50 μg/cm^2 lookup needed for "CCOC(=O)c1csc(C(=O)C(C)(C)OC(=O)Nc2ccc(-c3ncn(-c4ccc(OC(F)(F)F)cc4)n3)cc2)n1" , thanks.
Outgoing: B (Less than 50)

###

tested on: beet armyworm (BAW; Spodoptera exigua: Lepidoptera); test: Insecticidal test for beet armyworm, 128-well diet tray assay; format: in vivo
observable: % Mortality BAW 50 μg/cm^2

Some entries whose results are on file:
>>> measured_result("CC(OC(=O)Nc1ccc(-c2ncn(-c3ccc(OC(F)(F)F)cc3)n2)cc1)c1ccccn1 (centres unmarked)")
"A (50-100)"
>>> measured_result("CCCCCC(CC)OC(=O)Nc1ccc(-c2ncn(-c3ccc(OC(F)(F)F)cc3)n2)cc1 (centres unmarked)")
"A (50-100)"
>>> measured_result("O=C(Nc1ccc(-c2ncn(-c3ccc(OC(F)(F)F)cc3)n2)cc1)OCc1ccccc1")
"A (50-100)"
>>> measured_result("CCC(CC)OC(=O)Nc1ccc(-c2ncn(-c3ccc(OC(F)(F)F)cc3)n2)cc1")
"A (50-100)"

Let us move to another entry and its % Mortality BAW 50 μg/cm^2.
Incoming: % Mortality BAW 50 μg/cm^2 lookup needed for "C#CC(C)(C)OC(=O)Nc1ccc(-c2ncn(-c3ccc(OC(F)(F)F)cc3)n2)cc1" , thanks.
Outgoing: A (50-100)

###

System: corn earworm (CEW; Helicoverpa zea: Lepidoptera)
Assay: Insecticidal test for corn earworm, 128-well diet tray assay
Format: in vivo
Experimental: Insecticidal Test for Corn Earworm (Helicoverpa zea) Bioassays on corn earworm (CEW; Helicoverpa zea: Lepidoptera) were conducted using a 128-well diet tray assay. […] Percent mortality was recorded for the larvae in each well; activity in the eight wells was then averaged.
observable: % Mortality CEW 50 μg/cm^2

Some entries whose results are on file:
>>> measured_result("CCCCC(OC(=O)Nc1ccc(-c2ncn(-c3ccc(OC(F)(F)F)cc3)n2)cc1)c1ccccc1 (stereo not drawn)")
"A (50-100)"
>>> measured_result("Cc1ccc(C(C)OC(=O)Nc2ccc(-c3ncn(-c4ccc(OC(F)(F)F)cc4)n3)cc2)cc1 (stereo not drawn)")
"A (50-100)"
>>> measured_result("Cc1cc(Cl)ccc1OC(=O)Nc1ccc(-c2ncn(-c3ccc(OC(F)(F)F)cc3)n2)cc1")
"A (50-100)"
>>> measured_result("Cc1cccc(C(C)OC(=O)Nc2ccc(-c3ncn(-c4ccc(OC(F)(F)F)cc4)n3)cc2)n1 (stereo not drawn)")
"A (50-100)"
>>> measured_result("CCCCC(OC(=O)Nc1ccc(-c2ncn(-c3ccc(OC(F)(F)F)cc3)n2)cc1)C(=O)OCC (stereo not drawn)")
"A (50-100)"
>>> measured_result("CC(OC(=O)Nc1ccc(-c2ncn(-c3ccc(OC(F)(F)F)cc3)n2)cc1)c1ccc(C#N)cc1 (stereo not drawn)")
"A (50-100)"

Incoming: % Mortality CEW 50 μg/cm^2 lookup needed for CCC(OC(=O)Nc1ccc(-c2ncn(-c3ccc(OC(F)(F)C(F)(F)F)cc3)n2)cc1)c1ccccc1 (stereo not drawn) , thanks.
Outgoing: A (50-100)

Incoming: % Mortality CEW 50 μg/cm^2 lookup needed for CC(OC(=O)Nc1ccc(-c2ncn(-c3ccc(OC(F)(F)F)cc3)n2)cc1)c1ccccc1C(F)(F)F (stereo not drawn) , thanks.
Outgoing: A (50-100)

Incoming: % Mortality CEW 50 μg/cm^2 lookup needed for CC(OC(=O)Nc1ccc(-c2ncn(-c3ccc(C(F)(F)F)cc3)n2)cc1)c1ccc(C(F)(F)F)cc1 (stereo not drawn) , thanks.
Outgoing: A (50-100)

Incoming: % Mortality CEW 50 μg/cm^2 lookup needed for "CC1(OC(=O)Nc2ccc(-c3ncn(-c4ccc(OC(F)(F)F)cc4)n3)cc2)Cc2ccccc2C1" , thanks.
Outgoing: B (Less than 50)

Incoming: % Mortality CEW 50 μg/cm^2 lookup needed for Cc1ccc2c(c1)CC(C)C(OC(=O)Nc1ccc(-c3ncn(-c4ccc(OC(F)(F)F)cc4)n3)cc1)O2 (stereo not drawn) , thanks.
Outgoing: A (50-100)

Incoming: % Mortality CEW 50 μg/cm^2 lookup needed for CC(OC(=O)Nc1ccc(-c2ncn(-c3ccc(OC(F)(F)F)cc3)n2)cc1)c1ccc(Cl)cn1 (stereo not drawn) , thanks.
Outgoing: A (50-100)

Incoming: % Mortality CEW 50 μg/cm^2 lookup needed for CC(C)c1ccc(C(C)OC(=O)Nc2ccc(-c3ncn(-c4ccc(OC(F)(F)F)cc4)n3)cc2)cc1 (stereo not drawn) , thanks.
Outgoing: A (50-100)

Incoming: % Mortality CEW 50 μg/cm^2 lookup needed for "O=C(Nc1ccc(-c2ncn(-c3ccc(OC(F)(F)F)cc3)n2)cc1)OCc1ccc(C(F)(F)F)cc1" , thanks.
Outgoing: B (Less than 50)

Incoming: % Mortality CEW 50 μg/cm^2 lookup needed for "CCC#CC(C)(C)OC(=O)Nc1ccc(-c2ncn(-c3ccc(OC(F)(F)F)cc3)n2)cc1" , thanks.
Outgoing: A (50-100)

###

system: beet armyworm (BAW; Spodoptera exigua: Lepidoptera); test: Insecticidal test for beet armyworm, 128-well diet tray assay; format: in vivo
observable: % Mortality BAW 50 μg/cm^2

Some entries whose results are on file:
>>> measured_result("CC(OC(=O)Nc1ccc(-c2ncn(-c3ccc(OC(F)(F)F)cc3)n2)cc1)c1ccc(C(F)(F)F)[n+]([O-])c1 (stereo not shown)")
"A (50-100)"
>>> measured_result("CC1(OC(=O)Nc2ccc(-c3ncn(-c4ccc(OC(F)(F)F)cc4)n3)cc2)CCCCC1")
"B (Less than 50)"
>>> measured_result("N#CC(OC(=O)Nc1ccc(-c2ncn(-c3ccc(OC(F)(F)F)cc3)n2)cc1)c1ccccc1 (stereo not shown)")
"A (50-100)"
>>> measured_result("Cc1cccc(C)c1C(C)OC(=O)Nc1ccc(-c2ncn(-c3ccc(OC(F)(F)F)cc3)n2)cc1 (stereo not shown)")
"A (50-100)"
>>> measured_result("O=C(Nc1ccc(-c2ncn(-c3ccc(OC(F)(F)F)cc3)n2)cc1)OC(c1ccccc1)c1ccc(C(F)(F)F)cc1 (stereo not shown)")
"A (50-100)"
>>> measured_result("CCOC(=O)CC(C)OC(=O)Nc1ccc(-c2ncn(-c3ccc(OC(F)(F)F)cc3)n2)cc1 (stereo not shown)")
"B (Less than 50)"

Incoming: % Mortality BAW 50 μg/cm^2 lookup needed for "Cc1cc(C)c(CCOC(=O)Nc2ccc(-c3ncn(-c4ccc(OC(F)(F)F)cc4)n3)cc2)c(C)c1" , thanks.
Outgoing: B (Less than 50)
